Target: T1, LTKTG-EGFL (human LTK amino acids 63-420) (human, UniProt P29376 63-420)
T1 construct: Fc-His6 tag removed by caspase 3; also called LTK (in BLI, SEC-MALLS and ITC)
T1 sequence: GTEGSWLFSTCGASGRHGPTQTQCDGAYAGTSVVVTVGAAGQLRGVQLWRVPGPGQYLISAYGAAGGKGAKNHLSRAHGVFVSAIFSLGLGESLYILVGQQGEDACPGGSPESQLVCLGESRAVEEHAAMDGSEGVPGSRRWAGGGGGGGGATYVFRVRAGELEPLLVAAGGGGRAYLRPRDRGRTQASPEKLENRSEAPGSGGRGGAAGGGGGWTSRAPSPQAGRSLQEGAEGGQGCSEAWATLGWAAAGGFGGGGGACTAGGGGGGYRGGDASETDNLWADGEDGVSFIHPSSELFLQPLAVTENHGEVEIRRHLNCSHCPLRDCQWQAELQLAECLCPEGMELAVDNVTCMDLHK
Experiment: BLI, biotinylated ALKAL1 F76E on streptavidin biosensors, LTKTG-EGFL in solution, dilution series 6.4 µM-400 nM, biphasic fit, component 2
METRIC: Kd

For ALKAL1^F76E (residues 57-129) (ligand, human, UniProt Q6UXT8 57-129, looked up, range 57-129; Avi-tagged and biotinylated in BLI; used as purified protein in SEC-MALLS and Ba/F3 assays; also called ALKAL1 site 2 mutant) PSGSRSAEIFPRDSNLKDKEIKHFTGPVTFSPECSKHFHRLYYNTRECSTPAYYKRCARLLTRLAVSPLCSQT the binder record lists Kd as 1.5 µM
